EXPERIMENT: activity coefficient (dimensionless); of the first substance listed, at infinite dilution; xn = mol fraction of the nth substance listed
EXPERIMENTAL_CONTEXT: 348.15 K; 101 kPa; Liquid; Chromatography; x1 = 0
// returns Not satisfied unless activity coefficient is strictly below 10, in which case Satisfied

Would you please look over these solved cases?
MOLECULE: CCCCCCCCCC [decane] + CCCC[N+]1(C)CCCC1.N#C[B-](C#N)(C#N)C#N
GROUP_LABEL: Not satisfied

MOLECULE: C#CCCCCCC [1-octyne] + CCCC[N+]1(C)CCCC1.N#C[B-](C#N)(C#N)C#N
GROUP_LABEL: Satisfied

MOLECULE: CCC(C)(C)C [2,2-dimethylbutane] + CCCC[N+]1(C)CCCC1.N#C[B-](C#N)(C#N)C#N
GROUP_LABEL: Not satisfied

Would you kindly verify if activity coefficient of CCCC(C)=O [pentan-2-one] + CCCC[N+]1(C)CCCC1.N#C[B-](C#N)(C#N)C#N is strictly less than 10?
Satisfied

Could you please tell me whether activity coefficient recorded for CCCCCCC [heptane] + CCCC[N+]1(C)CCCC1.N#C[B-](C#N)(C#N)C#N is less than 10?
Not satisfied

Quick check: activity coefficient of CCOCC [diethyl ether] + CCCC[N+]1(C)CCCC1.N#C[B-](C#N)(C#N)C#N under 10?
Satisfied

Record Cc1ccccc1 [toluene] + CCCC[N+]1(C)CCCC1.N#C[B-](C#N)(C#N)C#N : is its activity coefficient strictly below 10?
Satisfied

Consider the molecule CCC(C)(C)OC [2-methoxy-2-methylbutane] + CCCC[N+]1(C)CCCC1.N#C[B-](C#N)(C#N)C#N . Is its activity coefficient strictly less than 10?
Satisfied

* * *

EXPERIMENT: activity coefficient (dimensionless); of the first substance listed, at infinite dilution; xn = mol fraction of the nth substance listed
EXPERIMENTAL_CONTEXT: 358.15 K; 101 kPa; Liquid; Chromatography; x1 = 0
Let's look at some compounds and their measured activity coefficient.
Answer field: number only, no words.

COMPOUND: C#CCCCCCC [1-octyne] + CCCC[N+]1(C)CCCC1.N#C[B-](C#N)(C#N)C#N
activity coefficient: 4.81

COMPOUND: CCCCC [pentane] + CCCC[N+]1(C)CCCC1.N#C[B-](C#N)(C#N)C#N
activity coefficient: 9.56

COMPOUND: CCC(C)(C)C [2,2-dimethylbutane] + CCCC[N+]1(C)CCCC1.N#C[B-](C#N)(C#N)C#N
activity coefficient: 12.1

COMPOUND: CO [methanol] + CCCC[N+]1(C)CCCC1.N#C[B-](C#N)(C#N)C#N
activity coefficient: 0.753

Looking for the measured activity coefficient of C1CCCCC1 [cyclohexane] + CCCC[N+]1(C)CCCC1.N#C[B-](C#N)(C#N)C#N , can you help?
6.75

Quick check: activity coefficient of CCCCCCCCCC [decane] + CCCC[N+]1(C)CCCC1.N#C[B-](C#N)(C#N)C#N ?
44.9

Any idea what its activity coefficient is? The compound is Cc1ccccc1C [1,2-dimethylbenzene] + CCCC[N+]1(C)CCCC1.N#C[B-](C#N)(C#N)C#N
1.43

Can you look up the measured activity coefficient of CCCC(C)=O [pentan-2-one] + CCCC[N+]1(C)CCCC1.N#C[B-](C#N)(C#N)C#N for me?
0.738

Which activity coefficient is listed for O [water] + CCCC[N+]1(C)CCCC1.N#C[B-](C#N)(C#N)C#N ?
1.39

* * *

EXPERIMENT: activity coefficient (dimensionless); of the first substance listed, at infinite dilution; xn = mol fraction of the nth substance listed
EXPERIMENTAL_CONTEXT: 358.15 K; 101 kPa; Liquid; Chromatography; x1 = 0
// Not fulfilled strictly below 3 in activity coefficient; Fulfilled otherwise

The examples below pair each entry with its known result.
COMPOUND: CCC(C)CC [3-methylpentane] + CCCC[N+]1(C)CCCC1.N#C[B-](C#N)(C#N)C#N
GROUP_LABEL: Fulfilled

COMPOUND: CCCCCCCC [octane] + CCCC[N+]1(C)CCCC1.N#C[B-](C#N)(C#N)C#N
GROUP_LABEL: Fulfilled

COMPOUND: CCc1ccccc1 [ethylbenzene] + CCCC[N+]1(C)CCCC1.N#C[B-](C#N)(C#N)C#N
GROUP_LABEL: Not fulfilled

COMPOUND: COC(C)(C)C [2-methoxy-2-methylpropane] + CCCC[N+]1(C)CCCC1.N#C[B-](C#N)(C#N)C#N
GROUP_LABEL: Not fulfilled

COMPOUND: CCCCCCCCC [nonane] + CCCC[N+]1(C)CCCC1.N#C[B-](C#N)(C#N)C#N
GROUP_LABEL: Fulfilled

COMPOUND: C1CCCCCCC1 [cyclooctane] + CCCC[N+]1(C)CCCC1.N#C[B-](C#N)(C#N)C#N
GROUP_LABEL: Fulfilled

Hi, just wondering whether C=CCCCC [hex-1-ene] + CCCC[N+]1(C)CCCC1.N#C[B-](C#N)(C#N)C#N shows activity coefficient of 3 or higher.
Fulfilled

Say whether CCOCC [diethyl ether] + CCCC[N+]1(C)CCCC1.N#C[B-](C#N)(C#N)C#N shows activity coefficient of 3 or more.
Not fulfilled

Does the compound CCCCCC [hexane] + CCCC[N+]1(C)CCCC1.N#C[B-](C#N)(C#N)C#N have recorded activity coefficient that is 3 or more?
Fulfilled

Check if activity coefficient >= 3 (inclusive). Item: Cc1ccccc1 [toluene] + CCCC[N+]1(C)CCCC1.N#C[B-](C#N)(C#N)C#N
Not fulfilled

* * *

EXPERIMENT: activity coefficient (dimensionless); of the first substance listed, at infinite dilution; xn = mol fraction of the nth substance listed
EXPERIMENTAL_CONTEXT: 318.15 K; 101 kPa; Liquid; Chromatography; x1 = 0
TEST_READOUT: activity coefficient
# output: bare number, no unit

COMPOUND: C=CCCC [1-pentene] + CCCC[N+]1(C)CCCC1.N#C[B-](C#N)(C#N)C#N
activity coefficient: 5.58

COMPOUND: O [water] + CCCC[N+]1(C)CCCC1.N#C[B-](C#N)(C#N)C#N
activity coefficient: 2.15

COMPOUND: CCCOCCC [dipropyl ether] + CCCC[N+]1(C)CCCC1.N#C[B-](C#N)(C#N)C#N
activity coefficient: 5.78

Fill blank: measured activity coefficient of the compound C1CCCCCC1 [cycloheptane] + CCCC[N+]1(C)CCCC1.N#C[B-](C#N)(C#N)C#N is ____.
10.4

Please report the recorded activity coefficient for C1CCCC1 [cyclopentane] + CCCC[N+]1(C)CCCC1.N#C[B-](C#N)(C#N)C#N .
5.87

What value of activity coefficient has been recorded for this entry: CCCO [propan-1-ol] + CCCC[N+]1(C)CCCC1.N#C[B-](C#N)(C#N)C#N
1.5

Please look up its activity coefficient: CC(C)=O [acetone] + CCCC[N+]1(C)CCCC1.N#C[B-](C#N)(C#N)C#N
0.439

Using the record for CO [methanol] + CCCC[N+]1(C)CCCC1.N#C[B-](C#N)(C#N)C#N , report its activity coefficient.
0.991

Which activity coefficient reading was recorded for the compound C1CCCCC1 [cyclohexane] + CCCC[N+]1(C)CCCC1.N#C[B-](C#N)(C#N)C#N ?
8.42

Report activity coefficient for C#CCCCC [1-hexyne] + CCCC[N+]1(C)CCCC1.N#C[B-](C#N)(C#N)C#N please.
2.53

Recorded activity coefficient of CCCCCCCCCC [decane] + CCCC[N+]1(C)CCCC1.N#C[B-](C#N)(C#N)C#N , please.
65.7

I would be grateful if you could share the reported activity coefficient for CCCCC [pentane] + CCCC[N+]1(C)CCCC1.N#C[B-](C#N)(C#N)C#N .
12.1

Query (compound): CCCCCCCCC [nonane] + CCCC[N+]1(C)CCCC1.N#C[B-](C#N)(C#N)C#N ; field requested: activity coefficient
46.2

Please report the recorded activity coefficient for CCCCCCCC [octane] + CCCC[N+]1(C)CCCC1.N#C[B-](C#N)(C#N)C#N .
32.6

Which activity coefficient is reported for this compound? C=CCCCCCCCC [1-decene] + CCCC[N+]1(C)CCCC1.N#C[B-](C#N)(C#N)C#N
29.7

Report activity coefficient for C1CCCCCCC1 [cyclooctane] + CCCC[N+]1(C)CCCC1.N#C[B-](C#N)(C#N)C#N please.
13.5

Record request: activity coefficient value, item CCC(C)CC [3-methylpentane] + CCCC[N+]1(C)CCCC1.N#C[B-](C#N)(C#N)C#N
14.9

Consider the compound CCOCC [diethyl ether] + CCCC[N+]1(C)CCCC1.N#C[B-](C#N)(C#N)C#N and give its measured activity coefficient.
2.32

Which activity coefficient value is on record for C=CCCCC [hex-1-ene] + CCCC[N+]1(C)CCCC1.N#C[B-](C#N)(C#N)C#N ?
7.68
